Experiment: NCI Yeast Anticancer Drug Screen. Data for the cln2 rad14 strain (AID 165);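 further: 0% = growth equal to vehicle treated cultures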
Details: S. cerevisiae cln2 rad14 strain, at 5.0 µM (retest, dose inferred, filed as 0.5), hits give high values
Compounds without any hit were thinned out: in the full panel of roughly 79,000, 15% have a hit.
readout: growth inhibition (%)
Answers are plain numbers, in %.

Solved entries (count: 3):
CCCCCCCCCCCCCCCCSC(=NC)NC    25
COc1ccc(C(c2c(O)c3ccccc3oc2=O)N2CCOCC2)c(OC)c1 (stereo not drawn)    3
OCCc1ccc(-n2cnc3c(Nc4ccc(Cl)cc4)ncnc32)cc1    -18

Provide reported growth inhibition for each item, in the same order as listed.
1. CN1c2ccccc2Sc2c1n[nH]c2-c1ccccc1
2. Clc1cccc2c(-c3ccccc3)c3cccc(Cl)c3cc12

Output line:
1: 2; 2: 6

Hi! Can you tell me growth inhibition for each of these compounds?
1. c1ccc(N/N=C2/CCCC3/C(=N\Nc4ccccc4)CCCC23)cc1 (stereo not drawn)
2. FC(F)(F)c1ccc(NC(=S)SCc2ccc(Cl)cc2)cc1
3. O=S(=O)(O)c1ccc(N=Nc2ccc3c(S(=O)(=O)O)cccc3c2O)c2ccccc12
4. CC1(c2ccc(F)cc2)OC(=O)c2c1ccc1ccccc21 (stereo not drawn)
5. CCOc1ccccc1/C=N/Nc1nnc(N/N=C/c2ccccc2OCC)c2ccccc12
6. O=C(CNc1ccc(Cl)cc1)Nn1c(-c2ccccc2)nc2ccccc2c1=O
7. CN(C)N=Nc1c(-c2cccs2)n[nH]c1C(F)(F)F
8. O=C(O)Cc1cccc2cc3c(ccc4ccccc43)cc12

Output line:
-11
-3
-25
-15
-10
11
99
-2

Could you tell me growth inhibition for each of these compounds? They are listed below.
1. CCCCCCCCCCCCCCCCS(=O)(=O)Cl
2. FC(F)(F)C(F)(F)C1(F)C(F)(F)C(F)(F)C(F)(F)C(F)(F)C1(F)F
3. C/C(=N\NS(=O)(=O)c1ccc(C)cc1)c1cc2ccccc2n1C

Output line:
31
1
-5

====

Test: NCI Yeast Anticancer Drug Screen. Data for the bub3 strain (AID 167)
Conditions: S. cerevisiae bub3 mutant strain, at 50.0 µM (retest, dose inferred, filed as 5.0), hits give high values
About 79,000 compounds went through this panel and 15% of them were active in at least one assay; those are over-represented in the sample as a whole. Where a SMILES comes first, the peptide text is derived from it. The star is where a group is joined. Cbz = O=C(OCc1ccccc1)*
Answer each item with its documented growth inhibition.
Answers are plain numbers, in %.

CC1CCCC(CCN(C)CCC2CCCCC2)CC1 (centres undefined)    79

# per-item lookup of growth inhibition; items listed below
1. CCC(c1ccc(OC)cc1)C(CC)c1ccc(O)c(CN(C)C)c1 (centres undefined)
2. CC1(C)C[C@H]2C=C(C=O)[C@]34C[C@]3(C(=O)OC4O)[C@H]2C1 (some centres undefined)
3. O=C(CN1CCCCC1)CC(O)(C(F)(F)F)C(F)(F)F
4. Oc1cc2ccccc2c2c1ccc1ccccc12
5. CN(C)CCOC(=O)c1ccccc1
6. c1ccc(CC(Nc2cccnc2)c2ccccc2)cc1 (centres undefined)
7. Cc1cc(C)cc([C@H](C)N=Cc2cc(Br)ccc2O)c1
8. O=C1C=CC(=O)C1=Cc1ccc(Cl)c(Cl)c1

Output line:
1: 50; 2: 100; 3: 23; 4: 94; 5: 71; 6: 40; 7: 98; 8: 99

Value sought for every listed compound: growth inhibition.
1. O=C(CBr)N1c2ccccc2S(=O)(=O)c2ccc3ccccc3c21
2. CC(C)c1ccc(N2C(=O)C=CC2=O)cc1
3. ONC(=Nc1ccccc1)c1ccccc1
4. O=C1CCCCCCC2=C1C(Sc1ccccc1)CC2 (centres undefined)
5. Oc1ccc(COCCBr)c2cccnc12
6. O=C(C[P+](c1ccccc1)(c1ccccc1)c1ccccc1)c1ccc(Br)cc1
7. Cc1ccc[n+](CC(=O)C2CCC3CC4CCCCC4CC3C2)c1 (centres undefined)

Output line:
1. 97
2. 98
3. 35
4. 69
5. 98
6. 97
7. 29

For every record below, what is its growth inhibition?
1. CC(=O)Oc1c(C2CCCCC2)cc([N+](=O)[O-])cc1[N+](=O)[O-]
2. CC(C)(C)c1ccc(O)c(O)c1
3. CC(C)(C)CC(C)(C)c1ccc(Oc2ccc([N+](=O)[O-])cc2S(=O)(=O)O)cc1

Output line:
1: 99; 2: 23; 3: -13

I would be grateful if you could provide growth inhibition for each of the following entries.
1. Cc1ccc(NC(=O)CC2SC(N)=NC2=O)cc1C (centres undefined)
2. Cc1cc(Cl)cc2c1NC(=O)C2(O)C(C)C(=O)c1ccc(Cl)cc1 (centres undefined)
3. CC(C)COC(=O)C1C2C=CC(CC2)C1C(=O)OCC(C)C (centres undefined)
4. CC(=O)NNc1nc(C)c(C(=O)NNC(=O)C(=O)Nc2c(C)cccc2C(C)C)s1

Output line:
[-4, 99, 82, 87]

Input line: Output growth inhibition of O=C(NC(Cc1ccc(O)cc1)C(=O)NC(Cc1ccccc1)C(=O)O)OCc1ccccc1 (stereo not drawn) (Cbz-Tyr-Phe-OH; configuration not given here)
Output line: -3
